assay: in vivo; conditions: Balb/c nu/nu, mouse, iv, 40 pmol, total radioactivity, Bone uptake

{"compound": "CC(C)C[C@H](NC(=O)C[C@H](O)[C@H](CC(C)C)NC(=O)[C@H](Cc1c[nH]cn1)NC(=O)CNC(=O)[C@@H](NC(=O)[C@H](C)NC(=O)[C@H](Cc1c[nH]c2ccccc12)NC(=O)[C@H](CCC(N)=O)NC(=O)[C@@H](Cc1ccccc1)NC(=O)COCCOCCNC(=O)CCC(C(=O)O)N1CCN(CC(=O)O)CCN(CC(=O)O)CCN(CC(=O)O)CC1)C(C)C)C(N)=O (mixture of isomers) [[^111In]In-DOTAGA-PEG2-RM26, metal not drawn]", "units": "%ID/g", "tissue uptake at 4 h": 0.07}
